Would you kindly list TRF signal for each of these binders?
- TARGET_SYSTEM: trypsin
- METHOD: Fab TRF, 2.4 ug/mL Fab
Numbers only.

{"BINDER": "KB_A09 (scFv, V domains shown) VH: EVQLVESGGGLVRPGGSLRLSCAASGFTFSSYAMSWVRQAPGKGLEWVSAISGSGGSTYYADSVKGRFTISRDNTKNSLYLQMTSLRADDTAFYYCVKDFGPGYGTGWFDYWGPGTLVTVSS VL: AVNWYQQLPGKAPKLLIYAAERCPRILMRCKQDSDCLAGCVCGPNGFCGTPSGVPDRFSGSIDTFSNSASLTISGLKTEDEADYYCQSYDSSHHWVFGGGTKLTVLG", "TRF signal": 84100}

Then this binder:
query: Annotate the binder KB_C08 (scFv, V domains shown) VH: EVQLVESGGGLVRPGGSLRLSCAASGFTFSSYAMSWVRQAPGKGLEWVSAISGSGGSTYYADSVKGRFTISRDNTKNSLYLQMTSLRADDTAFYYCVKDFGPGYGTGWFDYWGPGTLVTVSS VL: AVNWYQQLPGKAPKLLIYAAAVCPRILMRCKQDSDCLAGCVCGPNGFCGTRSGIPERFSGSKSGTSAFLAISGLRSEDEADYYCAAWDDSLSGVVFGGGTKLTVLG with its measured TRF signal.
result: 131000
